Value source: paper PMC9482650

target: GIPC2, Q8TF65; experiment: holdup assay; design: key: below the threshold = too weak to quantify, mostly under pKd 3.1 to 4; settings: plain residues with an end cap or a label only (N-terminal biotin on a linker: ado-ado)
Sequence (Q8TF65 112-203): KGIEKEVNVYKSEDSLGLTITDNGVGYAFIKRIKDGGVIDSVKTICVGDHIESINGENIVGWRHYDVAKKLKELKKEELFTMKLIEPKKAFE

| BINDER | pKd |
| --- | --- |
| VNKSKLLTDV [KCNA1, Q09470] | below the threshold |
| RHGSCVETSL [TMEM151B, Q8IW70] | 3.92 |
| SGSLKLMTTV [DACT1, Q9NYF0] | below the threshold |
| LPHPHSTTRV [NLGN2, Q8NFZ4] | below the threshold |
| RRISSLESEV [GRIN2C, Q14957] | 3.65 |
| EVEEFPETSV [TRPV3, Q8NET8] | 4.32 |
| FNSYSLTGYV [CLDN2, P57739] | below the threshold |
| VDSTVKVWTC [TRAF7, Q6Q0C0] | below the threshold |
| VYPNAKVELV [PDLIM4_iso2, P50479;P50479-1] | below the threshold |
| KKMPSIESDV [GRIN2A, Q12879] | 3.84 |
| VKPQVSESKL [ACOT8, O14734] | below the threshold |
| YYKRPVQEWV [MMP24, Q9Y5R2] | below the threshold |
| GNSVLKSTQF [SLC22A12, Q96S37] | below the threshold |
| QHKTQLQTLI [BPIFA2, Q96DR5] | 3.49 |
| IPLDGETEEL [MYOZ1, Q9NP98] | below the threshold |
| NLSIEKETKL [ASNSD1, Q9NWL6] | below the threshold |
| RRLPGKETMA [GRIK2, Q13002] | below the threshold |
| ETQVTAETVI [TMEM225B, P0DP42] | below the threshold |
